target: human GnRH receptor (Homo sapiens, UniProt P30968); construct: The cDNA for the human GnRH receptor is cloned into the plasmid expression vector, pcDNA 3; expressed in transfected cells; host or cells: HEK 293 cells, stably transfected (pcDNA 3); membrane preparation; assay: GnRH receptor competitive radioligand binding assay (125I-GnRH-A, HEK 293 cell membranes); conditions: compound at 10 μM; average of 1st and 2nd test; read-out: Average % Remaining (percent of specific binding remaining)
Sequence (P30968 whole entry): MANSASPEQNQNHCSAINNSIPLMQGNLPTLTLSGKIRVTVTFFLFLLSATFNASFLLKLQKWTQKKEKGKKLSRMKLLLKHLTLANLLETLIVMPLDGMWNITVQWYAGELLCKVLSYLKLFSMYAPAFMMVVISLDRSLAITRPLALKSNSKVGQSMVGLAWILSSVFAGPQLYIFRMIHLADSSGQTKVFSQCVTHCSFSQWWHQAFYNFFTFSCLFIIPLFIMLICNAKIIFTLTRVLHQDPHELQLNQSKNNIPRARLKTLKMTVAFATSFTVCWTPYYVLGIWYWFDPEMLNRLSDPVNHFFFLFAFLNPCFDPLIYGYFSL
readout.label: remaining activity at 10 µM (%)

>  <molecule>
N=C(N)NCc1cccc(CN(CC23CC=CCC2C2CC=CCC2O3)C(=O)C2CCCCC2)c1 (stereo not drawn)

>  <value.measured>
60

$$$$
>  <molecule>
N=C(N)NCC1CCC(CN(Cc2cccc(Oc3ccc(Cl)cc3)c2)C(=O)c2ccc(Cl)nc2)CC1 (stereo not drawn)

>  <value.measured>
60

$$$$
>  <molecule>
Cc1cc2c(cc1CN(CC1CCCC(CNC(=N)N)C1)C(=O)c1ccc3ccccc3c1)C(C)(C)CCC2(C)C (stereo not drawn)

>  <value.measured>
54

$$$$
>  <molecule>
N=C(N)NCC1CCCC(CN(CC23CC=CCC2C2CC=CCC2O3)C(=O)c2cccc3ccccc23)C1 (stereo not drawn)

>  <value.measured>
42

$$$$
>  <molecule>
N=C(N)NCC1CCCC(CN(CC23CC=CCC2C2CC=CCC2O3)C(=O)c2ccc(Cl)nc2)C1 (stereo not drawn)

>  <value.measured>
58

$$$$
>  <molecule>
CC(=O)N(Cc1cc2c(cc1C)C(C)(C)CCC2(C)C)CC1CCC(CNC(=N)N)CC1 (stereo not drawn)

>  <value.measured>
55

$$$$
>  <molecule>
CCOc1cc(OCC)c(OCC)cc1CN(CC1CCC(CNC(=N)N)CC1)C(=O)c1ccco1 (stereo not drawn)

>  <value.measured>
52

$$$$
>  <molecule>
CC(C)(C)c1ccc(CN(CC2CCCC(CNC(=N)N)C2)C(=O)c2ccccc2)cc1 (stereo not drawn)

>  <value.measured>
60

$$$$
>  <molecule>
N=C(N)NCC1CCCC(CN(Cc2ccc(OCc3ccccc3)c(OCc3ccccc3)c2)C(=O)C2CCCCC2)C1 (stereo not drawn)

>  <value.measured>
59

$$$$
>  <molecule>
CC(=O)N(Cc1cccc(Oc2ccc(Cl)cc2)c1)CC1CCC(CNC(=N)N)CC1 (stereo not drawn)

>  <value.measured>
59

$$$$
>  <molecule>
Cc1cc2c(cc1CN(CCCCNC(=N)N)C(=O)c1ccc3ccccc3c1)C(C)(C)CCC2(C)C

>  <value.measured>
57

$$$$
>  <molecule>
CCOC(=O)C(=O)N(Cc1cc2c(cc1C)C(C)(C)CCC2(C)C)CC1CCC(CNC(=N)N)CC1 (stereo not drawn)

>  <value.measured>
57

$$$$
>  <molecule>
COCC(=O)N(Cc1cc2c(cc1C)C(C)(C)CCC2(C)C)CC1CCC(CNC(=N)N)CC1 (stereo not drawn)

>  <value.measured>
41

$$$$
>  <molecule>
Cc1cc2c(cc1CN(Cc1ccc(CNC(=N)N)cc1)C(=O)c1ccco1)C(C)(C)CCC2(C)C

>  <value.measured>
13

$$$$
>  <molecule>
Cc1cc2c(cc1CN(Cc1ccc(CNC(=N)N)cc1)C(=O)c1ccc(Cl)nc1)C(C)(C)CCC2(C)C

>  <value.measured>
49

$$$$
>  <molecule>
Cc1cc2c(cc1CN(CCCCNC(=N)N)C(=O)C1CCCCC1)C(C)(C)CCC2(C)C

>  <value.measured>
59

$$$$
>  <molecule>
CC(=O)N(Cc1ccc(OCc2ccccc2)c(OCc2ccccc2)c1)CC1CCCC(CNC(=N)N)C1 (stereo not drawn)

>  <value.measured>
48

$$$$
>  <molecule>
Cc1cc2c(cc1CN(CCCCNC(=N)N)C(=O)c1cccc3ccccc13)C(C)(C)CCC2(C)C

>  <value.measured>
52

$$$$
>  <molecule>
CC(C)(C)c1ccc(CN(Cc2ccc(CNC(=N)N)cc2)C(=O)c2ccccc2)cc1

>  <value.measured>
57

$$$$
>  <molecule>
Cc1cc2c(cc1CN(CC1CCC(CNC(=N)N)CC1)C(=O)c1ccc(Cl)nc1)C(C)(C)CCC2(C)C (stereo not drawn)

>  <value.measured>
48

$$$$
>  <molecule>
N=C(N)NCc1cccc(CN(CC23CC=CCC2C2CC=CCC2O3)C(=O)c2ccc3ccccc3c2)c1 (stereo not drawn)

>  <value.measured>
46

$$$$
>  <molecule>
N=C(N)NCC1CCCC(CN(Cc2ccc(OCc3ccccc3)c(OCc3ccccc3)c2)C(=O)c2ccccc2)C1 (stereo not drawn)

>  <value.measured>
52

$$$$
>  <molecule>
N=C(N)NCCCCN(Cc1ccc(OCc2ccccc2)c(OCc2ccccc2)c1)C(=O)C1CCCCC1

>  <value.measured>
59

$$$$
>  <molecule>
CCOc1cc(OCC)c(OCC)cc1CN(Cc1ccc(CNC(=N)N)cc1)C(=O)c1ccco1

>  <value.measured>
55

$$$$
>  <molecule>
Cc1cc2c(cc1CN(CC1CCC(CNC(=N)N)CC1)C(=O)C1CCCC1)C(C)(C)CCC2(C)C (stereo not drawn)

>  <value.measured>
51

$$$$
>  <molecule>
Cc1cc2c(cc1CN(CC1CCC(CNC(=N)N)CC1)C(=O)c1cnn(-c3ccccc3)c1C(F)(F)F)C(C)(C)CCC2(C)C (stereo not drawn)

>  <value.measured>
60

$$$$
>  <molecule>
N=C(N)NCc1ccc(CN(Cc2ccc(OCc3ccccc3)c(OCc3ccccc3)c2)C(=O)c2ccc(Cl)nc2)cc1

>  <value.measured>
57

$$$$
>  <molecule>
Cc1cc2c(cc1CN(Cc1ccc(CNC(=N)N)cc1)C(=O)C1CCCCC1)C(C)(C)CCC2(C)C

>  <value.measured>
53

$$$$
>  <molecule>
Cc1cc2c(cc1CN(Cc1cccc(CNC(=N)N)c1)C(=O)c1ccco1)C(C)(C)CCC2(C)C

>  <value.measured>
12

$$$$
>  <molecule>
COC(=O)CCCCCC(=O)N(Cc1cc2c(cc1C)C(C)(C)CCC2(C)C)CC1CCC(CNC(=N)N)CC1 (stereo not drawn)

>  <value.measured>
55

$$$$
